Every entry's value here was drawn from patent US6596772B1.

# ASSAY TARGET: PTP SHP2 (Homo sapiens)
# Construct: The catalytic domain was amplified using the following oligonucleotides; made in house; host or cells: Sf-9 insect cells (pFastBac-G2T)
# Sequence (Q06124 247-517 limits assumed): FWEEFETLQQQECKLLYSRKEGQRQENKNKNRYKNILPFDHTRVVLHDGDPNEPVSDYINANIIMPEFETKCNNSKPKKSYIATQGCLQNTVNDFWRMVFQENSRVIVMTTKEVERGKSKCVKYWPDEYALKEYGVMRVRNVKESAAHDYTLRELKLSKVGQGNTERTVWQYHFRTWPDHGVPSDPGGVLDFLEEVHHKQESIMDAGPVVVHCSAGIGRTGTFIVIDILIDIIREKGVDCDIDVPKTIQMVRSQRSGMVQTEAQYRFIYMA
# METHOD NOTES: PTP IC50 assay, pNPP or FDP as substrate
# Type: biochemical
# SETTINGS: pNPP or FDP as substrate, 25° C.; read-out: PTP IC50 SHP2
A collection of molecules and their measured IC50
Could you give me the number in µM? Just the number is fine.

> print(dat)
                                 test.smiles             assay.target  metric.name  observed.result
 1  O=C(c1ccccc1)N(Cc1ccc(S(=O)(=O)C(F)(F)F)cc1)Cc1ccc(S(=O)(=O)C(F)(F)F)cc1  PTP SHP2 (Homo sapiens)         IC50             74.5
 2  CC(C)(c1ccc(NS(=O)(=O)C(F)(F)F)cc1)c1ccc(C(C)(C)c2ccc(NS(=O)(=O)C(F)(F)F)cc2)cc1  PTP SHP2 (Homo sapiens)         IC50              1.8
 3  O=S(=O)(Nc1ccc(-c2nnc(-c3ccc(NS(=O)(=O)C(F)(F)F)cc3)o2)cc1)C(F)(F)F  PTP SHP2 (Homo sapiens)         IC50                8
 4  O=S(=O)(Nc1ccc(Oc2cccc(Oc3ccc(NS(=O)(=O)C(F)(F)F)cc3)c2)cc1)C(F)(F)F  PTP SHP2 (Homo sapiens)         IC50              2.8
 5  O=C(O)Cc1cccc(CC(=O)Nc2cccc(S(=O)(=O)C(F)(F)F)c2)c1  PTP SHP2 (Homo sapiens)         IC50             17.9
 6  O=S(=O)(Nc1ccc(CCc2ccc(NS(=O)(=O)C(F)(F)F)cc2)cc1)C(F)(F)F  PTP SHP2 (Homo sapiens)         IC50             36.6
 7  O=C(O)c1cc(Oc2ccc(S(=O)(=O)C(F)(F)F)cc2)cc(Oc2ccc(S(=O)(=O)C(F)(F)F)cc2)c1  PTP SHP2 (Homo sapiens)         IC50              5.7
 8  O=C(O)Cc1ccc(CC(=O)Nc2cccc(S(=O)(=O)C(F)(F)F)c2)cc1  PTP SHP2 (Homo sapiens)         IC50               37
 9  CC(C)(COc1ccc(NS(=O)(=O)C(F)(F)F)cc1)COc1ccc(NS(=O)(=O)C(F)(F)F)cc1  PTP SHP2 (Homo sapiens)         IC50              6.2
10  O=C(Cc1ccc(CC(=O)Nc2cccc(S(=O)(=O)C(F)(F)F)c2)cc1)Nc1cccc(S(=O)(=O)C(F)(F)F)c1  PTP SHP2 (Homo sapiens)         IC50             16.3

So, O=S(=O)(c1ccc(COc2ccc(S(=O)(=O)C(F)(F)F)cc2)cc1)C(F)(F)F ? Its IC50 was 42.6

So, O=[N+]([O-])c1cc(S(=O)(=O)C(F)(F)F)ccc1SSc1ccc(S(=O)(=O)C(F)(F)F)cc1[N+](=O)[O-] ? Its IC50 was 37

So, O=S(=O)(Nc1ccc(Oc2ccc(Oc3ccc(NS(=O)(=O)C(F)(F)F)cc3)cc2)cc1)C(F)(F)F ? Its IC50 was 3.4

So, O=C(Cc1cccc(CC(=O)Nc2cccc(S(=O)(=O)C(F)(F)F)c2)c1)Nc1cccc(S(=O)(=O)C(F)(F)F)c1 ? Its IC50 was 56.8

So, O=C(Cc1ccccc1CC(=O)Nc1cccc(S(=O)(=O)C(F)(F)F)c1)Nc1cccc(S(=O)(=O)C(F)(F)F)c1 ? Its IC50 was 54.3
